assay: NCI Yeast Anticancer Drug Screen. Data for the bub3 strain (AID 167); conditions: S. cerevisiae bub3 mutant strain, at 5.0 µM (retest, dose inferred, filed as 0.5), stronger effect = higher value
This is part of a sample that, as a whole, favours compounds with a hit. Of some 79,000 tested, about 15% had one in any assay. *1 amine or outer side, *2 acyl side, *3 side chain or, on linkers, in order; H or OH if unused. Where a SMILES comes first, the peptide text is derived from it. Bridges are numbered along the chain shown (N, C = ends). [ ]: non-standard residue; d: D form. The star is where a group is joined. ξ: configuration not given here. ξOrn(4,5-diOH) = O=C(C(CC(O)C(O)N[*:3])N[*:1])[*:2]; ξhTyr(βξ-OH,γξ-OH) = NC(C(=O)O)C(O)C(O)c1ccc(O)cc1; ξPro(3ξ-OH,4ξ-Me) = CC1CNC(C(=O)O)C1O; X1 = CCCCC/C=C/C/C=C\CCCCCCCC(=O)*; Hyp = O=C(O)[CH]1C[CH](O)CN1
Endpoint name: growth inhibition (%)
Write down the numeric answer in % and omit the unit.

molecule="CCCCC/C=C/C/C=C\\CCCCCCCC(=O)NC1CC(O)C(O)NC(=O)C2C(O)C(C)CN2C(=O)C(C(C)O)NC(=O)C(C(O)C(O)c2ccc(O)cc2)NC(=O)C2CC(O)CN2C(=O)C(C(C)O)NC1=O (stereo not drawn) (X1-[ξOrn(4,5-diOH)]T[Hyp][ξhTyr(βξ-OH,γξ-OH)]T[ξPro(3ξ-OH,4ξ-Me)]; lactam 1-C; configuration not given here)" experimental_result=11
molecule=CCCCCCC[CH2][Sn]([CH2]CCCCCCC)([O]c1cccc2cccnc12)[O]c1cccc2cccnc12 experimental_result=4
molecule=N#[N+]c1c([O-])ccc2nc3ccccc3nc12 experimental_result=-59

# input molecule: Cc1noc(NS(=O)(=O)c2ccc(N=Nc3cc(N=Nc4ccc(S(=O)(=O)Nc5onc(C)c5C)cc4)c4c(NC(=O)C(Cl)Cl)cccc4c3O)cc2)c1C (tested in a mixture with another compound) ; wanted: its growth inhibition
95

Also, O=C(OCc1ccccc1)N(CCCCN(CCCNCc1ccccc1)C(=O)OCc1ccccc1)CCCNCc1ccccc1 please.
29

Also, COc1cccc2c1C(=O)c1c(O)c3c(c(O)c1C2=O)C[C@@](O)(C(O)CO)C[C@@H]3OC1CC(N(Cc2ccccc2)Cc2ccccc2)C(O)C(C)O1 (stereo partly drawn) please.
20

Also, O=S(=O)(O)c1ccc(N=Nc2ccc3c(S(=O)(=O)O)cccc3c2O)c2ccccc12 please.
-2

Also, CCCC(CCC)NCCOC(=O)C(CC)c1ccccc1 (stereo not drawn) please.
7

###

test: NCI Yeast Anticancer Drug Screen. Data for the rad50 strain (AID 155);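 further: 0% = growth of vehicle-only cultures of the same strain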; conditions: S. cerevisiae rad50 strain growth inhibition; at 50.0 µM
This is part of a sample that, as a whole, favours compounds with a hit. Of some 79,000 tested, about 15% had one in any assay. Activity calls are given as the source filed them. Cut-off read from the data, not from the text of the source: active = growth inhibition above about 70%; inactive = the rest.
The categories you may choose from are Y (active), N (inactive)

Dear all, I need the recorded test outcome for C=CCN1/C(=C\C=C\c2ccc3cc(C)ccc3[n+]2CC=C)C=Cc2cc(C)ccc21 , thank you.
Y

###

test: NCI Yeast Anticancer Drug Screen. Data for the bub3 strain (AID 167); conditions: S. cerevisiae bub3 mutant strain, at 5.0 µM (retest, dose inferred, filed as 0.5)
Compounds without any hit were thinned out: in the full panel of roughly 79,000, 15% have a hit. Activity calls are given as the source filed them. No stated cut-off is given here; in the data, active means growth inhibition above about 70%; inactive means the rest.
The categories you may choose from are Y = active, N = inactive

compound=CC(C)c1ccc(/C=C(\NC(=O)c2ccccc2)c2nc3ccccc3[nH]2)cc1 class_assignment=N
compound="CC(C)NC(=O)OCCS(=O)c1c(Cl)c(Cl)nn1C (centres undefined)" class_assignment=N

Dear all, I need the recorded test outcome for CC(C)CC(CC(C)C)NCC(C)OC(=O)C(c1ccccc1)c1ccccc1 (centres undefined) , thank you.
N

Also, O=C1NC(c2ccccc2)(c2ccccc2)C(=O)N1SC(Cl)(Cl)Cl please.
Y

Also, CN1CCCN(C)C1c1cc([N+](=O)[O-])ccc1O please.
N

Also, Oc1ccc2ccccc2c1I please.
Y

Also, Cc1c(N=Nc2ccccc2Cl)c(-c2ccccc2)nn1C(=S)S please.
N

Also, Oc1ccc2ccccc2c1.[Cu+2] please.
N
